Reference for the values: patent US9040545B2

List of JAK3/AurB Fold Selectivity values.
- measurement_target: Aurora B (Homo sapiens)
- Construct: cell lysates from Jurkat cells (ATCC TIB-152) used; endogenous in cells; host or cells: Jurkat cells (ATCC TIB-152), treated with pervanadate
- experiment: Kinobeads assay, Aurora B
- Assay type: binding

| compound | measurement_target | experimental_endpoint | test_value |
| --- | --- | --- | --- |
| OCCn1cc(Nc2ncc3cnn(Cc4cc(N5CCOCC5)cc(F)c4F)c3n2)cn1 | Aurora B (Homo sapiens) | JAK3/AurB Fold Selectivity | >50 Fold |

Query compound follows.
Query: Retrieve JAK3/AurB Fold Selectivity on Aurora B (Homo sapiens); query Cn1cc(Nc2ncc3cnn(Cc4cccc(-c5cnn(CCO)c5)c4)c3n2)cn1
Result: 10-50 Fold

###

- measurement_target: Aurora B (Homo sapiens, UniProt Q96GD4)
- Construct: cell lysates from Jurkat cells (ATCC TIB-152) used; endogenous in cells; host or cells: Jurkat cells (ATCC TIB-152), treated with pervanadate
- Sequence (Q96GD4 whole entry): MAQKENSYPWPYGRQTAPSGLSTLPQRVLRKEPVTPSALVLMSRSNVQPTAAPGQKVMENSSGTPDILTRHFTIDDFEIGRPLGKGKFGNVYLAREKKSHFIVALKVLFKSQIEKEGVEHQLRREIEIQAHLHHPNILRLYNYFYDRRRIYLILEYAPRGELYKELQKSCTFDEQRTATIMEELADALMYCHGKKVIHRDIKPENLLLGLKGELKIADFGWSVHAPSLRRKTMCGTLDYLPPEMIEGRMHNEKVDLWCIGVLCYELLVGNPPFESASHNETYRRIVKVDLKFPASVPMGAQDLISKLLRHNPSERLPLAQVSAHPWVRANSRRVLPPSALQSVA
- experiment: Kinobeads assay, Aurora B
- Type: binding
experimental_endpoint: JAK3/AurB Fold Selectivity

Here is how some compounds turned out for JAK3/AurB Fold Selectivity.
| compound | test_value |
| --- | --- |
| Cn1cc(Nc2ncc3cnn(Cc4cccc(NC5COC5)c4)c3n2)cn1 [Example 114] | 10-50 Fold |
| Cn1cc(Nc2ncc3cnn(Cc4cccc(C(=O)N5CCOCC5)c4)c3n2)cn1 [Example 6] | >50 Fold |
| CN(C)CCCn1cc(Nc2ncc3cnn(Cc4cccc(N5CCOCC5)c4F)c3n2)cn1 [Example 43] | >50 Fold |
| OCCn1cc(Nc2ncc3cnn(Cc4cc(N5CCOCC5)ccc4F)c3n2)cn1 [Example 44] | 10-50 Fold |

Query: Identify JAK3/AurB Fold Selectivity associated with the compound O=C1CNCCN1c1cccc(Cn2ncc3cnc(Nc4cnn(CCO)c4)nc32)c1F [Example 55]
Result: 10-50 Fold

Query: // fetch JAK3/AurB Fold Selectivity given entry Cn1cc(Nc2ncc3cnn(Cc4cccc(N5CCNCC5)c4)c3n2)cn1 [Example 22]
Result: >50 Fold

###

- measurement_target: Aurora B (Homo sapiens)
- Construct: cell lysates from Jurkat cells (ATCC TIB-152) used; endogenous in cells; host or cells: Jurkat cells (ATCC TIB-152), treated with pervanadate
- experiment: Kinobeads assay, Aurora B
- Type: binding
Collected JAK3/AurB Fold Selectivity values appear next to each entry.

Previously resolved entries follow.
| compound | JAK3/AurB Fold Selectivity |
| --- | --- |
| Cn1cc(Nc2ncc3cnn(Cc4cc(F)cc(N5CCOCC5=O)c4)c3n2)cn1 | >50 Fold |
| O=C1CNCCN1c1cc(F)c(F)c(Cn2ncc3cnc(Nc4cnn(CCO)c4)nc32)c1 | 10-50 Fold |
| Fc1cc(N2CCOCC2)c(F)c(Cn2ncc3cnc(Nc4cnn(CC5CCNC5)c4)nc32)c1F (stereo not shown) | >50 Fold |

Shift focus to the following entry.
Query: State JAK3/AurB Fold Selectivity on Aurora B (Homo sapiens). Entry: Cn1cc(Nc2ncc3cnn(Cc4cccc(-c5cn[nH]c5)c4)c3n2)cn1
Result: 10-50 Fold

###

- measurement_target: Aurora B (Homo sapiens)
- Construct: cell lysates from Jurkat cells (ATCC TIB-152) used; endogenous in cells
- experiment: Kinobeads assay, Aurora B
- cond: lysate of pervanadate-treated Jurkat cells, read-out: Inhibition values (IC50) Aur B
Listing of recorded IC50 by entry.

Solved entries:
| smiles_representation | IC50 |
| --- | --- |
| CC(C)n1cc(-c2cccc(Cn3ncc4cnc(Nc5cnn(C)c5)nc43)c2)cn1 | ≥ 10 µM |
| Cn1cc(Nc2ncc3cnn(Cc4cc(N5CCOCC5)ccc4F)c3n2)cn1 | 1 to 10 µM |
| OCCn1cc(Nc2ncc3cnn(Cc4c(F)c(F)cc(N5CCOCC5)c4F)c3n2)cn1 | 0.1 to 1 µM |
| OCCn1cc(Nc2ncc3cnn(Cc4cc(N5CCOCC5)ccc4F)c3n2)cn1 | 0.1 to 1 µM |

Query: Return IC50 (reported value) for this molecule: CN(C)CCCn1cc(Nc2ncc3cnn(Cc4cccc(N5CCOCC5)c4F)c3n2)cn1
Result: 0.1 to 1 µM

Query: Could you please provide reported IC50 for Cn1cc(Nc2ncc3cnn(Cc4cc(F)cc(N5CCNCC5=O)c4)c3n2)cn1 ? Thanks!
Result: 0.1 to 1 µM

Query: Indicate its recorded IC50; the molecule in question is Cn1cc(Nc2ncc3cnn(Cc4cc(F)cc(N5CCOCC5=O)c4F)c3n2)cn1
Result: 0.1 to 1 µM

Query: Tell me its IC50 given Cn1cc(Nc2ncc3cnn(Cc4cccc(N5CC6CCC(C5)O6)c4)c3n2)cn1 as the entry.
Result: 1 to 10 µM

Query: Name the recorded IC50 of the molecule listed here: O=C1CCCN1CCCn1cc(Nc2ncc3cnn(Cc4cccc(N5CCOCC5)c4)c3n2)cn1
Result: 1 to 10 µM

Query: Give me measured IC50, please, for this molecule: CN(C)CCCn1cc(Nc2ncc3cnn(Cc4c(F)c(F)cc(N5CCOCC5)c4F)c3n2)cn1
Result: 0.1 to 1 µM

Query: In one line, give reported IC50 of the entry CN(C)CC1(Cn2cc(Nc3ncc4cnn(Cc5cccc(N6CCOCC6)c5)c4n3)cn2)COC1 .
Result: 1 to 10 µM

Query: Provide one value: measured IC50 of O=C1COCCN1c1cc(F)c(F)c(Cn2ncc3cnc(Nc4cnn(CCO)c4)nc32)c1F
Result: 0.1 to 1 µM

Query: Determine from records and report IC50 for Cn1cc(Nc2ncc3cnn(Cc4c(F)ccc(N5CCNCC5=O)c4F)c3n2)cn1
Result: 0.1 to 1 µM

Query: Determine from records and report IC50 for Cn1cc(Nc2ncc3cnn(Cc4cccc(-c5cnn(CCO)c5)c4)c3n2)cn1
Result: 1 to 10 µM

Query: Provide one value: measured IC50 of OCCn1cc(Nc2ncc3cnn(Cc4cc(F)cc(N5CCNCC5)c4F)c3n2)cn1
Result: ≥ 10 µM

Query: Provide IC50 value for the following molecule: Cn1cc(Nc2ncc3cnn(Cc4cccc(N5CCNCC5=O)c4F)c3n2)cn1
Result: 1 to 10 µM

Query: Determine its reported IC50: Cn1cc(Nc2ncc3cnn(Cc4cc(F)cc(N5CCNCC5)c4)c3n2)cn1
Result: 0.1 to 1 µM
